assay: modulators of MEP2-GFP levels in yeast, confirmation, S. cerevisiae, flow cytometry GFP, cherry picks (AID 2272);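 also: ratio of well signal to plate DMSO mean so 100% equals DMSO level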; details: S. cerevisiae MEP2-GFP strain, 3 h, at 10 µM
Calls of active or inactive are those of the source.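 The calls were made as follows: active = GFP response above 150% of the DMSO control; inconclusive = Fewer than 70 cells counted for a yeast strain; inactive = the rest.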
Outcome codes: true (1) for active, false (0) for inactive

| COMPOUND | QUALITATIVE_LABEL |
| --- | --- |
| Cc1ccc(NC(=S)N/N=C/c2c(C)[nH]c3ccccc23)cc1 | false (0) |
| CCCc1[nH]nc2c1C(c1ccc(OC)c(Cn3nnc4ccccc43)c1)C(C#N)=C(N)O2 (stereo unspecified) | false (0) |
| CCCCN(CC)S(=O)(=O)c1ccc(C(=O)Nc2nnc(COC)o2)cc1 | false (0) |
| COC(=O)c1ccc(/C=C/C(=O)c2ccc(OC)c(OC)c2)cc1 | false (0) |
| O=C(COc1c(Br)cc(Br)c2cccnc12)N1CCc2ccccc2C1 | false (0) |
| CCc1oc2ccccc2c1C(=O)CCN1CCCCC1 | false (0) |
| CCCCC1OC23CCCCC2C(C#N)(C(=N)O3)C1(C#N)C#N (stereo unspecified) | true (1) |
| CSc1ccc(/C=C/C(=O)c2ccc(NC(C)=O)cc2)cc1 | false (0) |
| O=C(/C=C/c1c(F)cccc1Cl)c1ccc(O)cc1 | false (0) |
| Cc1nn(C)c(C(=O)Sc2cccc(Cl)c2)c1[N+](=O)[O-] | false (0) |
| CC(NCCS(=O)(=O)c1ccc(Cl)cc1)c1cccc(Cl)c1 (stereo unspecified) | false (0) |
| Cc1ccc(Sc2ccc([N+](=O)[O-])cc2[N+](=O)[O-])nc1 | false (0) |
| O=S(=O)(c1ccc(Oc2ccc(Br)cc2)cc1)N1CCOCC1 | false (0) |
| CCNC(=O)/C(C#N)=C/c1c(N2CCN(Cc3ccc4c(c3)OCO4)CC2)nc2c(C)cccn2c1=O | false (0) |
| Cc1ccc2c(c1)/C(=C/c1ccc(F)cc1)C(=O)N2 | false (0) |
| O=[N+]([O-])c1ncccc1OCc1ccc(-c2ccccc2)cc1 | false (0) |
| O=C(N/N=C/c1ccccc1Cl)c1cccc(F)c1 | false (0) |
| Cc1ccc(NC(=O)c2ccccc2O)cc1 | false (0) |
| N/C(=N\OC(=O)c1ccc(Cl)cc1Cl)c1ccccc1 | false (0) |
| O=c1[nH]c2c(=O)[nH]cnc2nc1-c1ccccc1 | false (0) |
| COC(=O)c1ccc(N2C(=O)CC(SCCN)C2=O)cc1 (stereo unspecified) | false (0) |
| Cc1cccc(NC(=O)/C(C#N)=C/c2ccccc2Cl)n1 | false (0) |
| Cc1[nH]n(-c2ccccc2)c(=O)c1/C=N/Nc1nncc(-c2ccccc2)n1 | false (0) |
| COc1ccc(C(=O)Nc2cccc(C)c2)cc1 | false (0) |
| COc1ccc(NC(=O)C2CCN(S(=O)(=O)c3ccc(OC)c(OC)c3)CC2)c(OC)c1 | false (0) |
| O=C(OC(c1ccc(NS(=O)(=O)c2ccccc2)cc1)(C(F)(F)F)C(F)(F)F)c1ccccc1 | false (0) |
| Oc1c(Br)cc(Br)cc1C=Nc1ccc2c(c1)OCO2 | false (0) |
| O=C(CSCc1cccc(Br)c1)N=Nc1c(O)[nH]c2ccccc12 | false (0) |
| COc1cc(NC(=O)c2ccccc2F)ccc1NC(=O)c1cc2ccccc2o1 | false (0) |
| Cc1ccc(/C=C2/C(=O)ON=C2c2ccccc2)o1 | false (0) |
| N=c1ccn(CC(=O)c2ccc(-c3ccccc3)cc2)cc1 | false (0) |
| Cc1ccc(C(=O)Nc2nnc(CC(=O)N/N=C/c3ccc(O)c(O)c3)s2)cc1 | false (0) |
| Cc1cc(C)c2sc(NC(=O)C3=COCCO3)nc2c1 | false (0) |
| CCN(CC)S(=O)(=O)c1ccc(O)c(C(=O)OCC(=O)NC2CCCC2)c1 | false (0) |
| Cc1cccc(C(=O)Nc2ccc(O)cc2)c1 | false (0) |
| COc1ccc(C(=O)/C(=C/O)N=Nc2ccc(F)cc2)cc1 | false (0) |
| COc1ccccc1N1C(=O)CC(Sc2ncccc2C(=O)O)C1=O (stereo unspecified) | false (0) |
| COc1ccccc1OCC(=O)Sc1ccc(C)cc1 | false (0) |
| CCN(CC)S(=O)(=O)c1cccc(C(=O)NCC(c2ccccc2)N(C)C)c1 (stereo unspecified) | false (0) |
| Cc1cccc(Sc2ccc([N+](=O)[O-])cn2)c1 | false (0) |
| O=C(c1ccccn1)c1conc1C(=O)c1ccc(Br)cc1 | false (0) |
| O=[N+]([O-])c1cccc(-c2ccc(/C=N/Nc3nc(N4CCCCC4)nc(N4CCCCC4)n3)o2)c1 | false (0) |
| Cc1nnc(N2C(=O)c3cccc4cccc(c34)C2=O)s1 | false (0) |
| COc1cc(/C=C2\N=C(c3c(-c4ccccc4)noc3C)OC2=O)ccc1OC(C)=O | false (0) |
| CCCCOc1cccc(/C=C(\C#N)C(=O)NC2CC2)c1 | false (0) |
| O=C1Oc2ccccc2C(=O)/C1=C/c1ccccc1O | false (0) |
